system: TRPC4 (mouse), co-expressed with 5HT1a in HEK293; experiment: enhancement of serotonin-evoked TRPC4 response – cell-based, second counter screen, HEK293 TRPC4/5HT1a, Fluo-4, counter-screen for TRPC4 potentiator project, confirmation (AID 434979); details: Fluo-4 calcium flux, at 10 µM, serotonin added at its EC20 dose
Calls of active or inactive are those of the source.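 How the source made its calls: active means signal rise over 3 SD above mean of control wells given weak agonist, in both repeats and first screen; inactive means the rest.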
Classes used: Y = active, N = inactive

{"molecule": "CCOc1cc(/C=C(\\C#N)C(=O)Nc2cccc(C(=O)O)c2)cc(Br)c1OC(=O)c1ccc(OC)cc1", "class.name": "Y"}
{"molecule": "COC(=O)C(CC(=O)Nc1cc(C)ccc1C)Nc1ccccc1OC (stereo not given)", "class.name": "N"}
{"molecule": "Cc1cc(C)nc(/N=C(\\N)N(Cc2ccccc2)Cc2ccccc2)n1", "class.name": "N"}
{"molecule": "CCN1CCN(c2ccc(S(=O)(=O)N3CCCCC3)cc2NC(=O)COc2cc(C)ccc2Cl)CC1", "class.name": "Y"}
{"molecule": "CCOc1ccccc1NC(=O)CN(c1ccc(OC)cc1)S(=O)(=O)c1c(C)[nH]c(=O)[nH]c1=O", "class.name": "Y"}
{"molecule": "O=C(c1ccccc1F)N1CCN(c2ccc([N+](=O)[O-])cc2-n2cccc2)CC1", "class.name": "Y"}
{"molecule": "Cc1cccc(-n2ccnc2CN2CCC(CO)(Cc3ccccc3)CC2)c1", "class.name": "N"}
{"molecule": "CCc1nc2ccccc2n1Cc1ccccc1F", "class.name": "N"}
{"molecule": "O=C(NCCc1ccccc1)c1cnc2ccccc2n1", "class.name": "Y"}
{"molecule": "COCCn1c(SCc2ccccc2F)nc2ccccc2c1=O", "class.name": "N"}
{"molecule": "Oc1ccc(CN2CCCCC2)nc1-c1ccccc1", "class.name": "N"}
{"molecule": "COc1ccccc1NC(=O)CSc1n[nH]c(-c2ccccn2)n1", "class.name": "N"}
{"molecule": "O=[N+]([O-])c1cc(Cc2ccccc2)cc(C=Nc2ccc(N3CCOCC3)cc2)c1O", "class.name": "N"}
{"molecule": "CCCCn1c(N)c(N(CCOC)C(=O)c2ccc(-c3ccc(C(C)=O)cc3)o2)c(=O)[nH]c1=O", "class.name": "N"}
{"molecule": "CCCc1nc2oc3c(NCCN(C)C)ncnc3c2c2c1CCCC2", "class.name": "N"}
{"molecule": "COc1cc(=O)n2c(-c3ccccc3)csc2n1", "class.name": "N"}
{"molecule": "COC(=O)c1cccc(Nc2c3c(nc4ccccc24)CCC3)c1", "class.name": "N"}
{"molecule": "CCCN(CCC)CCCNC(=O)c1cc2c(=O)n(C)c3ccccc3c2n1C", "class.name": "Y"}
{"molecule": "COc1cccc(C(=O)OC2CCCN(C)C2)c1 (stereo not given)", "class.name": "N"}
{"molecule": "Cc1ccccc1N1CC(O)(c2cccs2)[N+]2=C1CCCC2 (stereo not given)", "class.name": "N"}
{"molecule": "OC(CNCCC(c1ccccc1)c1ccccc1)COc1ccccc1 (stereo not given)", "class.name": "N"}
{"molecule": "CC1CC(C)CN(CCCNC(=O)Cn2cccc2C(=O)c2ccccc2)C1 (stereo not given)", "class.name": "N"}
{"molecule": "COc1ccc(N(C(=O)c2snc(C(N)=O)c2N)C(C(=O)NC2CCCCC2)c2ccc(C)o2)c(OC)c1 (stereo not given)", "class.name": "N"}
{"molecule": "CN(C)CCCN(C(=O)c1ccc(S(=O)(=O)N2CCCC2)cc1)c1nc2c(F)cc(F)cc2s1", "class.name": "N"}
{"molecule": "CCCCC(=O)NC(=S)NNC(=O)c1ccc(Cl)cc1Cl", "class.name": "N"}
{"molecule": "COc1ccc(Nc2cc(C)nc3ccc(OC)cc23)cc1", "class.name": "N"}
{"molecule": "CC(=O)Cn1ncc(N2CCOCC2)cc1=O", "class.name": "N"}
{"molecule": "Fc1ccccc1Sc1ccccc1CNC1=NCCN1", "class.name": "N"}
{"molecule": "CC1(C)CC(=O)C(C=NCCN2CCN(C3CC(=O)N(c4cccc(Br)c4)C3=O)CC2)=C(O)C1 (stereo not given)", "class.name": "Y"}
{"molecule": "COc1ccc(CC(=O)NCC(c2ccc(OC)cc2)N(C)C)cc1 (stereo not given)", "class.name": "N"}
{"molecule": "Clc1cccc(OCCN2CCNCC2)c1", "class.name": "N"}
{"molecule": "CCOC(=O)C(C)Sc1nc2c(c(=O)[nH]c(=O)n2C)n1Cc1ccc(Cl)cc1 (stereo not given)", "class.name": "N"}
{"molecule": "Cc1cc(C)cc(NC(=O)c2nnn(Cc3cc(C)ccc3C)c2N)c1", "class.name": "Y"}
{"molecule": "Cc1cccc(Cc2c(C)nc3c(C(=O)NCc4ccco4)cnn3c2C)c1", "class.name": "Y"}
{"molecule": "CC1CCN(CCCOc2ccc(OCc3ccccc3)cc2)CC1", "class.name": "N"}
{"molecule": "CC(C)Oc1cccc(C(=O)C2CCCN(Cc3cnn(C(C)C)c3)C2)c1 (stereo not given)", "class.name": "N"}
{"molecule": "CC(=O)Oc1ccc(/C=C(\\NC(=O)c2ccco2)C(=O)NCc2ccccc2)cc1", "class.name": "N"}
{"molecule": "CC(C)NCC(O)COCCOc1ccc(C(C)(C)C)cc1 (stereo not given)", "class.name": "N"}
{"molecule": "C/C(N)=C(/C#N)C(=O)COC(=O)C1CCC(C(C)(C)C)CC1 (stereo not given)", "class.name": "N"}
{"molecule": "CC(C)(C)n1nnnc1C(c1ccc(Cl)cc1)N(Cc1cccnc1)Cc1ccco1 (stereo not given)", "class.name": "N"}
{"molecule": "COc1cc(OC)cc(C(=O)NC(=S)NNC(=O)Cc2cccs2)c1", "class.name": "N"}
{"molecule": "CN(C)CCCNc1c2c(nc3cc(-c4cccc(F)c4)nn13)CCC2", "class.name": "N"}
{"molecule": "O=C(Nc1ccc(Cl)c(Cl)c1)N(CCCN1CCOCC1)Cc1cccs1", "class.name": "N"}
{"molecule": "Cc1cc(OCC(=O)NC2CCCCC2)ccc1Cl", "class.name": "Y"}
{"molecule": "CCn1cc(CN2CCCC(CO)(Cc3cccc(Cl)c3)C2)cn1 (stereo not given)", "class.name": "N"}

// provenance: PubChem BioAssay
